# TARGET_SYSTEM: PPARδ (Homo sapiens)
# Construct: expressed in transfected cells; host or cells: COS-7
# Sequence (Q03181 211-439 limits assumed): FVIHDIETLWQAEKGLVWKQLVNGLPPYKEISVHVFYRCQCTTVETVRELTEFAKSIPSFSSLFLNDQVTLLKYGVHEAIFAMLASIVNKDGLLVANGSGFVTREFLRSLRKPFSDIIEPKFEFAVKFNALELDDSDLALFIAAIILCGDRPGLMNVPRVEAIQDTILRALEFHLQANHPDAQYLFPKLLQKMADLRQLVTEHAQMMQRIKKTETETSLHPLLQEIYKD
# PROTOCOL_DESCRIPTION: GAL4 hybrid reporter gene method, PPARδ agonistic activity
# Assay type: cell-based
RECORDED_METRIC: pEC50
Give bare numbers, as −log10 of the molar value.

Known results for molecules:
Query: Check PPARδ (Homo sapiens) data and give pEC50 for "Cc1cc(CN2C(=O)CN(c3cccc(OC(F)(F)F)c3)C2=O)cc(C)c1OC(C)(C)C(=O)O" .
Reply: 7.82

Query: Would you please give the reported pEC50 of "CC(C)(Oc1c(F)cc(CN2C(=O)CN(c3ccc(C(F)(F)F)cc3)C2=O)cc1Cl)C(=O)O" with PPARδ (Homo sapiens)?
Reply: 7.72

Query: Give pEC50 only, for "Cc1cc(CN2C(=O)CN(c3ccc(F)c(Cl)c3)C2=O)cc(C)c1OC(C)(C)C(=O)O" , using PPARδ (Homo sapiens) data.
Reply: 7.39

Now let's try a different one.
Query: Quote PPARδ (Homo sapiens) pEC50 for entry Cc1cc(CN2C(=O)CN(c3ccc(C(F)(F)F)cc3)C2=O)cc(C)c1OC(C)C(=O)O (centres unmarked) .
Reply: 8.40
